B1: DVL3 (parent)
chain: SDVVDWLYHNVEGFTDRREARKYA

Variants of: B1
Assay: protein stability index of a GFP-peptide fusion (GPS, HEK-293T) (PSI 1-6); higher = more stable;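 note: lentivirally expressed fusions sorted by FACS into six bins by GFP to DsRed ratio, PSI derived from sequencing read proportions per bin multiplied by bin number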
Details: c terminus: a fixed tail appended
experimental_endpoint: protein stability index
When you answer, write just the number.

Sample records with protein stability index:
INSERT INTO results (sequence_variant, reported_measurement) VALUES
  ('V3I', 2.98),
  ('N10Q', 2.91),
  ('V4A', 3.09);

// next item, protein stability index requested
Per the record, `H9S` has protein stability index of 2.94
